Provenance of the data: paper PMC10786891

# Kd per entry
Target: T1, EsCas13d, nuclease-dead (Eubacterium siraeum, UniProt B0MS50, R295A;H300A;R849A;H854A)
T1 sequence: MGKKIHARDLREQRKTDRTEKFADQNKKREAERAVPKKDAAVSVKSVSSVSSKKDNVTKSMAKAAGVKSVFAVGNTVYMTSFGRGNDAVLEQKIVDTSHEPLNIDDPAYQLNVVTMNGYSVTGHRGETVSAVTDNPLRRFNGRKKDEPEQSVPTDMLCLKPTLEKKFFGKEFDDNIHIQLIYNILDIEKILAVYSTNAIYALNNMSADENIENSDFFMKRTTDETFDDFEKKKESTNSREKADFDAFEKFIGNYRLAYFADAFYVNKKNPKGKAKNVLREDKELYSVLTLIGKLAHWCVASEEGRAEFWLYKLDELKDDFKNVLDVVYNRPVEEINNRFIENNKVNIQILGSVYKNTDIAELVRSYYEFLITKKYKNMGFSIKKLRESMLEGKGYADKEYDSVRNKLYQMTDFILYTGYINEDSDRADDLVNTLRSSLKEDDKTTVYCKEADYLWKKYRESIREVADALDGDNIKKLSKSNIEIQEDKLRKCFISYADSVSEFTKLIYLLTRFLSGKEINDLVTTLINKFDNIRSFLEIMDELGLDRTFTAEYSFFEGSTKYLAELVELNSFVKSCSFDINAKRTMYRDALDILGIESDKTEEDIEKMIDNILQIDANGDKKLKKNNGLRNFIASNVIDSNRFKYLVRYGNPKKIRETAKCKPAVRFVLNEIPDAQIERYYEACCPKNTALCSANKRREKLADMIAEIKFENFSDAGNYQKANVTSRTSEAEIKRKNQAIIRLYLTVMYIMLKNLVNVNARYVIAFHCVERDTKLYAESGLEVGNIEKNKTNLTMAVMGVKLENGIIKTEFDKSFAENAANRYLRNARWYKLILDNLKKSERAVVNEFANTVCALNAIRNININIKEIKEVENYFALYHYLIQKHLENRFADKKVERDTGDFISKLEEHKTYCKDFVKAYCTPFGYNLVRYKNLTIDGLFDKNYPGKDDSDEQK
Experiment: crRNA (strand 1, pre-loaded); Mg2+; 40 mM Tris-HCl pH 7.5, 150 mM NaCl, 6 mM MgCl2, 1 mM DTT, 0.1% Tween-20, 0.2 mg/ml BSA; 25 C; 10 min per concentration, then washed
Conditions: tags: His6-TwinStrep-SUMO cleaved; N-terminal SNAP kept (SNAP-Surface 488); label: 3' end held by stalled T7 RNA polymerase

binder	unit-tag	Kd
target 1 insC 3' of 20,insU 3' of 17 (mixed) RNA 1: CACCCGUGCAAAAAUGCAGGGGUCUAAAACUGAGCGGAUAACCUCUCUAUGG RNA 2: GGGAAUGGAUCCACAUCUACGAAUUCGUACCACUAGUAGAGGUUAUCCGCUCACCGAGAUCGGAAGAGCACACGU	nM	16.9
target 1 insC 3' of 22,insU 3' of 5 (mixed) RNA 1: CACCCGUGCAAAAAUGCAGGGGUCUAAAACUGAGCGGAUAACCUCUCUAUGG RNA 2: GGGAAUGGAUCCACAUCUACGAAUUCGUACCCAUAGAGAGGUUAUCCGUCUCACCGAGAUCGGAAGAGCACACGU	nM	24.3
target 1 C6G (mixed) RNA 1: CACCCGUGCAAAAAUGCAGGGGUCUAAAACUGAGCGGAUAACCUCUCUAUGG RNA 2: GGGAAUGGAUCCACAUCUACGAAUUCGUACCAUAGAGAGGUUAUCGGCUCACCGAGAUCGGAAGAGCACACGU	nM	8.37
target 1 insU 3' of 17,insC 3' of 1 (mixed) RNA 1: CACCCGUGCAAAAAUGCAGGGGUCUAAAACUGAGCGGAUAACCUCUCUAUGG RNA 2: GGGAAUGGAUCCACAUCUACGAAUUCGUACCAUAGUAGAGGUUAUCCGCUCACCCGAGAUCGGAAGAGCACACGU	nM	18
